The reported measurements were obtained from paper PMC3949714.

# tested-on: mu-opioid receptors (MOR) (Mus musculus)
# Construct: FLAG; expressed in transfected cells
# Sequence (P42866 whole entry): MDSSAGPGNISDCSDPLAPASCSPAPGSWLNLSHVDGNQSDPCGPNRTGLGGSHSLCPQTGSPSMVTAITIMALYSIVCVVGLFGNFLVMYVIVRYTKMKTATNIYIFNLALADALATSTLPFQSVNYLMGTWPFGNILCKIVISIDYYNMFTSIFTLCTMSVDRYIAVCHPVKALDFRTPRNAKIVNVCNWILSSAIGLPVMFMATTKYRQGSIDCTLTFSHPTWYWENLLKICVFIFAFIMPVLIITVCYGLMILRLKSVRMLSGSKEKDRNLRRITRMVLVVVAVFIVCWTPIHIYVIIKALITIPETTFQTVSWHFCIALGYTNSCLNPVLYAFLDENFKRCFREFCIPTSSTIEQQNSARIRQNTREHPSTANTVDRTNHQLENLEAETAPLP
# test-details: cell-based
# Assay type: cell-based, murine
# run-conditions: Table 2 as titled; 20000 cells/well, FSK 100 µM, 0.3 nM to 1 µM in half log intervals, 30 min, Alphascreen; one-site fit, at least three independent experiments; read-out: IC50 for the inhibition of forskolin induced cAMP in HEK-MOP cells
quantity: IC50

compound: C=CCN1C[C@H](C)N([C@H](c2ccc(C(=O)N(CC)CC)cc2)c2cccc(OC)c2)C[C@H]1C [SNC 80, reference compound]
measured-value: 8.1 nM

###

# test-details: RP-HPLC retention time (read by the paper as polarity)
# Type: physicochemical
# run-conditions: incubation of BE 1-11; Jupiter C4 column, water/acetonitrile gradient with 0.1% formic acid, MS TIC detection
Where no end group is shown, it is not given here.

substance: BE 4-11: beta-endorphin fragment, residues 4-11 (FMTSEKSQ; Beta-endorphin; UniProt P01189 240-247, looked up, fragment)
unit-of-measure: min
Rt: 13.8

substance: BE 3-11: beta-endorphin fragment, residues 3-11 (GFMTSEKSQ; Beta-endorphin; UniProt P01189 239-247, looked up, fragment)
unit-of-measure: min
Rt: 15.4

substance: BE 2-9: des-tyrosine beta-endorphin fragment, residues 2-9 (GGFMTSEK; Beta-endorphin; UniProt P01189 238-245, looked up, fragment)
unit-of-measure: min
Rt: 15.8

substance: BE 2-11: des-tyrosine beta-endorphin fragment, residues 2-11 (GGFMTSEKSQ; Beta-endorphin; UniProt P01189 238-247, looked up, fragment)
unit-of-measure: min
Rt: 15.7

substance: YGGFMTSEKSQ [BE 1–11]
unit-of-measure: min
Rt: 17.4

###

Reported MRT is given for each of the following substances.
# test-details: Biotransformation in homogenised inflamed tissue at pH 5.5 (LC/MS, mean residence time)
# run-conditions: incubation of BE 1-31 (115 µM) in rat inflamed tissue homogenate, MES pH 5.5, 37°C, 120 min; AUMC/AUC of LC/MS peak intensity

substance: BE 1-16: beta-endorphin N-terminal fragment, residues 1-16 (YGGFMTSEKSQTPLVT; Beta-endorphin; UniProt P01189 237-252, looked up, fragment)
MRT: 9.8
//
substance: BE 2-9: des-tyrosine beta-endorphin fragment, residues 2-9 (GGFMTSEK; Beta-endorphin; UniProt P01189 238-245, looked up, fragment)
MRT: 20
//
substance: BE 10-28: beta-endorphin fragment, residues 10-28 (SQTPLVTLFKNAIIKNAYK; Beta-endorphin; UniProt P01189 246-264, looked up, fragment)
MRT: 32.3
//
substance: BE 5-24: beta-endorphin fragment, residues 5-24 (MTSEKSQTPLVTLFKNAIIK; Beta-endorphin; UniProt P01189 241-260, looked up, fragment)
MRT: 25.1
//
substance: BE 19-30: beta-endorphin fragment, residues 19-30 (KNAIIKNAYKKG; Beta-endorphin; UniProt P01189 255-266, looked up, fragment)
MRT: 72.2

###

# test-details: RP-HPLC retention time (read by the paper as polarity)
# Format: physicochemical
# run-conditions: incubation of BE 1-17; Jupiter C4 column, water/acetonitrile gradient with 0.1% formic acid, MS TIC detection
Where no end group is shown, it is not given here.
// F strictly below 20 min in RT; T otherwise

substance: BE 2-17: des-tyrosine beta-endorphin fragment, residues 2-17 (GGFMTSEKSQTPLVTL; Beta-endorphin; UniProt P01189 238-253, looked up, fragment)
assigned-label: T
//
substance: BE 2-13: des-tyrosine beta-endorphin fragment, residues 2-13 (GGFMTSEKSQTP; Beta-endorphin; UniProt P01189 238-249, looked up, fragment)
assigned-label: F
//
substance: BE 4-14: beta-endorphin fragment, residues 4-14 (FMTSEKSQTPL; Beta-endorphin; UniProt P01189 240-250, looked up, fragment)
assigned-label: F
//
substance: BE 4-13: beta-endorphin fragment, residues 4-13 (FMTSEKSQTP; Beta-endorphin; UniProt P01189 240-249, looked up, fragment)
assigned-label: F
//
substance: YGGFMTSEK [BE 1–9]
assigned-label: F

###

# test-details: RP-HPLC retention time (read by the paper as polarity)
# Assay type: physicochemical
# run-conditions: incubation of BE 1-17; Jupiter C4 column, water/acetonitrile gradient with 0.1% formic acid, MS TIC detection
Where no end group is shown, it is not given here.

substance: YGGFMTSEKSQTP [BE 1–13]
RT: 18.6 min
--
substance: BE 1-15: beta-endorphin N-terminal fragment, residues 1-15 (YGGFMTSEKSQTPLV; Beta-endorphin; UniProt P01189 237-251, looked up, fragment)
RT: 22.33 min
--
substance: BE 5-16: beta-endorphin fragment, residues 5-16 (MTSEKSQTPLVT; Beta-endorphin; UniProt P01189 241-252, looked up, fragment)
RT: 16.92 min
--
substance: BE 8-14: beta-endorphin fragment, residues 8-14 (EKSQTPL; Beta-endorphin; UniProt P01189 244-250, looked up, fragment)
RT: 16.27 min

###

Listed next: entries and their corresponding RT.
# test-details: RP-HPLC retention time (read by the paper as polarity)
# Type: physicochemical
# run-conditions: incubation of BE 1-17; Jupiter C4 column, water/acetonitrile gradient with 0.1% formic acid, MS TIC detection

substance: BE 7-16: beta-endorphin fragment, residues 7-16 (SEKSQTPLVT; Beta-endorphin; UniProt P01189 243-252, looked up, fragment)
RT [min]: 16
--
substance: BE 6-16: beta-endorphin fragment, residues 6-16 (TSEKSQTPLVT; Beta-endorphin; UniProt P01189 242-252, looked up, fragment)
RT [min]: 16
--
substance: BE 2-11: des-tyrosine beta-endorphin fragment, residues 2-11 (GGFMTSEKSQ; Beta-endorphin; UniProt P01189 238-247, looked up, fragment)
RT [min]: 15.52
--
substance: BE 2-9: des-tyrosine beta-endorphin fragment, residues 2-9 (GGFMTSEK; Beta-endorphin; UniProt P01189 238-245, looked up, fragment)
RT [min]: 15.87
--
substance: BE 3-11: beta-endorphin fragment, residues 3-11 (GFMTSEKSQ; Beta-endorphin; UniProt P01189 239-247, looked up, fragment)
RT [min]: 21.48

###

# test-details: RP-HPLC retention time (read by the paper as polarity)
# Type: physicochemical
# run-conditions: incubation of BE 1-17; Jupiter C4 column, water/acetonitrile gradient with 0.1% formic acid, MS TIC detection
Where no end group is shown, it is not given here.
Label Fulfilled when RT < 20 min; otherwise Not fulfilled.

substance: BE 4-16: beta-endorphin fragment, residues 4-16 (FMTSEKSQTPLVT; Beta-endorphin; UniProt P01189 240-252, looked up, fragment)
assigned-label: Fulfilled
--
substance: BE 2-15: beta-endorphin fragment, residues 2-15 (GGFMTSEKSQTPLV; Beta-endorphin; UniProt P01189 238-251, looked up, fragment)
assigned-label: Not fulfilled
--
substance: YGGFMTSEKSQ [BE 1–11]
assigned-label: Fulfilled

###

Documented RT across a set of substances
# test-details: RP-HPLC retention time (read by the paper as polarity)
# Assay type: physicochemical
# run-conditions: incubation of BE 1-31; Jupiter C4 300 A column, water/acetonitrile gradient with 0.1% formic acid, 200 µl/min, MS TIC detection
Where no end group is shown, it is not given here.

substance: BE 10-28: beta-endorphin fragment, residues 10-28 (SQTPLVTLFKNAIIKNAYK; Beta-endorphin; UniProt P01189 246-264, looked up, fragment)
unit-of-measure: min
RT: 26.9
--
substance: BE 2-11: des-tyrosine beta-endorphin fragment, residues 2-11 (GGFMTSEKSQ; Beta-endorphin; UniProt P01189 238-247, looked up, fragment)
unit-of-measure: min
RT: 17.5
--
substance: BE 2-9: des-tyrosine beta-endorphin fragment, residues 2-9 (GGFMTSEK; Beta-endorphin; UniProt P01189 238-245, looked up, fragment)
unit-of-measure: min
RT: 18.38
--
substance: YGGFMTSEKSQTP [BE 1–13]
unit-of-measure: min
RT: 20.9
--
substance: BE 10-16: beta-endorphin intermediate fragment, residues 10-16 (SQTPLVT; Beta-endorphin; UniProt P01189 246-252, looked up, fragment)
unit-of-measure: min
RT: 19
--
substance: YGGFMTSEK [BE 1–9]
unit-of-measure: min
RT: 20.2
--
substance: BE 1-15: beta-endorphin N-terminal fragment, residues 1-15 (YGGFMTSEKSQTPLV; Beta-endorphin; UniProt P01189 237-251, looked up, fragment)
unit-of-measure: min
RT: 24.2
--
substance: BE 2-14: beta-endorphin fragment, residues 2-14 (GGFMTSEKSQTPL; Beta-endorphin; UniProt P01189 238-250, looked up, fragment)
unit-of-measure: min
RT: 22.2
--
substance: BE 2-13: des-tyrosine beta-endorphin fragment, residues 2-13 (GGFMTSEKSQTP; Beta-endorphin; UniProt P01189 238-249, looked up, fragment)
unit-of-measure: min
RT: 19.96
--
substance: BE 20-31: beta-endorphin C-terminal fragment, residues 20-31 (NAIIKNAYKKGE; Beta-endorphin; UniProt P01189 256-267, looked up, fragment)
unit-of-measure: min
RT: 14.3
--
substance: BE 20-28: beta-endorphin intermediate fragment, residues 20-28 (NAIIKNAYK; Beta-endorphin; UniProt P01189 256-264, looked up, fragment)
unit-of-measure: min
RT: 16.1
